Source listed as BindingDB's records for patent US9908886.

# TARGET OF ASSAY: MAP kinase-interacting serine/threonine-protein kinase 1 (Homo sapiens, UniProt Q9BUB5)
# Sequence (Q9BUB5 whole entry): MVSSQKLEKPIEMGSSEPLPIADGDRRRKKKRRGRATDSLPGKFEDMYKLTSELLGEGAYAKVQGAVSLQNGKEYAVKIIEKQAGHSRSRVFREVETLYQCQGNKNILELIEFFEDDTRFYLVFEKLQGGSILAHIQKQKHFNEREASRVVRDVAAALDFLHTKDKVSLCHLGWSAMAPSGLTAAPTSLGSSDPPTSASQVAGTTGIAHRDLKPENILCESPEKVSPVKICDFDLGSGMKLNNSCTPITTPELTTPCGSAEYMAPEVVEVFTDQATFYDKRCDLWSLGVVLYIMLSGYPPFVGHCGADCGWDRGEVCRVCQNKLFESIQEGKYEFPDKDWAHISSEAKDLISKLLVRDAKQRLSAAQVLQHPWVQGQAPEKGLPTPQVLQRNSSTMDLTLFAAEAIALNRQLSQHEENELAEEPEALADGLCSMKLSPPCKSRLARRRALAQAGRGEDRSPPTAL
MEASURED ATTRIBUTE: IC50

query: GET /values?readout=IC50&item= CN1CCN(C(=O)c2ccc(-c3ccc4ncc(-c5ccc(C#N)cc5)n4n3)cc2)CC1 [US9908886, Example 54]
result: < 0.1 µM
